# Test system: MDA-MB-453
# experimentSummary: normalised response (% of control), CellTiter-Glo; higher = more viable cells (100 = DMSO, 0 = benzethonium chloride kill control)
# experimentalSetup: incubation time: 72 h
Items are presented alongside their recorded normalised response.
Value expressed in %; do not type the unit.

Prompt: For the molecule CC1(C)CCC(CN2CCN(c3ccc(C(=O)NS(=O)(=O)c4ccc(NCC5CCOCC5)c([N+](=O)[O-])c4)c(Oc4cnc5[nH]ccc5c4)c3)CC2)=C(c2ccc(Cl)cc2)C1 [ABT-199] (100 nM) , give its measured normalised response value.
Completion: 90.7

Prompt: Specify reported normalised response for the molecule shown: O=NN(CCCl)C(=O)NCCCl [Carmustine] (100 nM)
Completion: 101

Prompt: Specify measured normalised response for CC[C@@H]1C(=O)OC[C@@H]1Cc1cncn1C [Pilocarpine] (400 nM) .
Completion: 96.1

Prompt: Supply measured normalised response of Oc1ncnc2[nH]ncc12 [Allopurinol] (100 nM) in your reply.
Completion: 110

Prompt: Consider the molecule CC1=C2C[C@H]3[C@@H](CC=C4C[C@@H](O)CC[C@@]43C)[C@@H]2CC[C@]12O[C@@H]1C[C@H](C)CN[C@H]1[C@H]2C [Cyclopamine] (100 nM) and give its recorded normalised response.
Completion: 122

Prompt: Answer with the recorded normalised response for the molecule listed here: CC1(C)CNc2cc(NC(=O)c3cccnc3NCc3ccncc3)ccc21 [Motesanib] (100 nM)
Completion: 99.8

====

# Test system: MCF-10A
# experimentSummary: normalised response (% of control), CellTiter-Glo; higher = more viable cells (100 = DMSO, 0 = benzethonium chloride kill control)
# experimentalSetup: incubation time: 72 h
If the reported normalised response equals or exceeds 30%, assign Y. If not, assign N.

CC1=C2C[C@H]3[C@@H](CC=C4C[C@@H](O)CC[C@@]43C)[C@@H]2CC[C@]12O[C@@H]1C[C@H](C)CN[C@H]1[C@H]2C [Cyclopamine] (10000 nM); Y
Cn1cnc2c(F)c(Nc3ccc(Br)cc3Cl)c(C(=O)NOCCO)cc21 [Selumetinib] (10000 nM); Y
Cc1ccc([N+](=O)[O-])cc1S(=O)(=O)N(C)/N=C/c1cnc2ccc(Br)cn12 [PIK-75] (10000 nM); N
COc1cc2c(cc1O)CC[C@@H]1[C@@H]2CC[C@]2(C)[C@@H](O)CC[C@@H]12 [2-methoxyestradiol] (10000 nM); Y
Nc1nc2[nH]cnc2c(=S)[nH]1 [Thioguanine] (10000 nM); Y

Then there is this compound:
Prompt: Has CC(C)(C)c1cnc(CSc2cnc(NC(=O)C3CCNCC3)s2)o1 [SNS-032] (10000 nM) a recorded normalised response greater than or equal to 30%?
Completion: N

====

# Tested on: CAL-120
# experimentSummary: normalised viability (% of control), CellTiter-Blue; higher = more viable cells (about 100 = DMSO control)
# experimentalSetup: 10 nM; incubation time: 72 h
propertyLabel: normalised viability

Check out these entries, answers already filled in.
O=NN(CCCl)C(=O)NCCCl; 98.9%
COc1cc2c(cc1O)CC[C@@H]1[C@@H]2CC[C@]2(C)[C@@H](O)CC[C@@H]12; 105%
Nc1ncn([C@@H]2O[C@H](CO)[C@@H](O)[C@H]2O)c(=O)n1; 80.9%
COc1cc(F)c(F)c(Nc2ccc(I)cc2F)c1NS(=O)(=O)C1(C[C@H](O)CO)CC1; 103%
Cc1sc2c(c1C)C(c1ccc(Cl)cc1)=N[C@@H](CC(=O)OC(C)(C)C)c1nnc(C)n1-2 [(+)JQ1]; 83.2%

Prompt: For the compound CC1(C)CNc2cc(NC(=O)c3cccnc3NCc3ccncc3)ccc21 , give its measured normalised viability value.
Completion: 74.4%

Prompt: Check the records and state normalised viability for O=P(O)(O)C(O)(Cn1ccnc1)P(=O)(O)O
Completion: 81.2%

====

# Test system: CAL-120
# experimentSummary: drug sensitivity score (DSS), CellTiter-Blue viability (DSS (AUC-based score)); higher = stronger viability inhibition; extreme values may be limits of the assay
# experimentalSetup: incubation time: 72 h
propertyLabel: drug sensitivity score
Simply state the number, no unit and no words.

Solved entries:
COc1cc(F)c(F)c(Nc2ccc(I)cc2F)c1NS(=O)(=O)C1(C[C@H](O)CO)CC1; 7.36
CC(C)(C)c1cnc(CSc2cnc(NC(=O)C3CCNCC3)s2)o1; 18.9
CC[C@@H]1C(=O)OC[C@@H]1Cc1cncn1C; 0
CC1=C2C[C@H]3[C@@H](CC=C4C[C@@H](O)CC[C@@]43C)[C@@H]2CC[C@]12O[C@@H]1C[C@H](C)CN[C@H]1[C@H]2C; 0

Prompt: Tell me measured drug sensitivity score for Nc1ncn([C@@H]2O[C@H](CO)[C@@H](O)[C@H]2O)c(=O)n1 please.
Completion: 0.768

====

# Tested on: BT-474
# experimentSummary: normalised response (% of control), CellTox Green; higher = less cell death (100 = DMSO, 0 = benzethonium chloride kill control)
# experimentalSetup: incubation time: 72 h
Listed compounds paired with reported normalised response
Field format: number, assumed %, no unit text.

Some entries whose results are on file:
CC[C@@H]1C(=O)OC[C@@H]1Cc1cncn1C [Pilocarpine] (400 nM); 98.4
Nc1ncn([C@@H]2O[C@H](CO)[C@@H](O)[C@H]2O)c(=O)n1 [Azacitidine] (100 nM); 101
Nc1nc2[nH]cnc2c(=S)[nH]1 [Thioguanine] (10000 nM); 103
C[C@]1(O)C[C@@H](c2nc(-c3ccc4ccc(-c5ccccc5)nc4c3)c3c(N)nccn32)C1 [Linsitinib] (100 nM); 99.3
COc1cc2c(cc1O)CC[C@@H]1[C@@H]2CC[C@]2(C)[C@@H](O)CC[C@@H]12 [2-methoxyestradiol] (1000 nM); 77.8
CC(=O)N(O)CCCCCNC(=O)CCC(=O)N(O)CCCCCNC(=O)CCC(=O)N(O)CCCCCN [Deferoxamine] (1000 nM); 96.8
CC1(C)CCC(CN2CCN(c3ccc(C(=O)NS(=O)(=O)c4ccc(NCC5CCOCC5)c([N+](=O)[O-])c4)c(Oc4cnc5[nH]ccc5c4)c3)CC2)=C(c2ccc(Cl)cc2)C1 [ABT-199] (10000 nM); 101
Cn1cc(C2=Nc3cc(NC(=O)C(N)C4CCCCC4)cc4c3C2=CNNC4=O)cn1 (configuration not stated) (1000 nM); 92.3

Prompt: Check the records and state normalised response for Oc1ncnc2[nH]ncc12 [Allopurinol] (10000 nM)
Completion: 104

Prompt: Look up and state reported normalised response for O=NN(CCCl)C(=O)NCCCl [Carmustine] (10000 nM)
Completion: 98.8

Prompt: Recall and state the measured normalised response for CC(=O)N(O)CCCCCNC(=O)CCC(=O)N(O)CCCCCNC(=O)CCC(=O)N(O)CCCCCN [Deferoxamine] (100 nM) .
Completion: 94.5

Prompt: Report normalised response for Nc1ncn([C@@H]2O[C@H](CO)[C@@H](O)[C@H]2O)c(=O)n1 [Azacitidine] (10000 nM)
Completion: 80

Prompt: Give normalised response for the following compound: C[C@]1(O)C[C@@H](c2nc(-c3ccc4ccc(-c5ccccc5)nc4c3)c3c(N)nccn32)C1 [Linsitinib] (1000 nM)
Completion: 91

Prompt: Give recorded normalised response. Cc1sc2c(c1C)C(c1ccc(Cl)cc1)=N[C@@H](CC(=O)OC(C)(C)C)c1nnc(C)n1-2 [(+)JQ1] (10000 nM)
Completion: 92.8

Prompt: Specify reported normalised response for the compound shown: CC1(C)CCC(CN2CCN(c3ccc(C(=O)NS(=O)(=O)c4ccc(NCC5CCOCC5)c([N+](=O)[O-])c4)c(Oc4cnc5[nH]ccc5c4)c3)CC2)=C(c2ccc(Cl)cc2)C1 [ABT-199] (1000 nM)
Completion: 99.9

Prompt: Please indicate normalised response recorded for C[C@]12CC[C@@H]3c4ccc(OC(=O)N(CCCl)CCCl)cc4CC[C@H]3[C@@H]1CC[C@@H]2O [Estramustine] (10000 nM)
Completion: 99

Prompt: Write down normalised response measured for item CC(C)(C)c1cnc(CSc2cnc(NC(=O)C3CCNCC3)s2)o1 [SNS-032] (10000 nM)
Completion: 93

====

Reported normalised viability values are given for each entry in this list.
# Tested on: Hs578T
# experimentSummary: normalised viability (% of control), CellTiter-Blue; higher = more viable cells (about 100 = DMSO control)
# experimentalSetup: 10 nM; incubation time: 72 h
Report only the number, with the unit % understood.

Oc1ncnc2[nH]ncc12 [Allopurinol]; 108

Prompt: Report its normalised viability with Hs578T as the test system: C[C@]1(O)C[C@@H](c2nc(-c3ccc4ccc(-c5ccccc5)nc4c3)c3c(N)nccn32)C1 [OSI-906]
Completion: 103

Prompt: Please tell me the measured normalised viability for CC1(C)CNc2cc(NC(=O)c3cccnc3NCc3ccncc3)ccc21 [Motesanib] ; system: Hs578T.
Completion: 104

Prompt: Given Cn1cnc2c(F)c(Nc3ccc(Br)cc3Cl)c(C(=O)NOCCO)cc21 [Selumetinib] , report its normalised viability on Hs578T.
Completion: 90.8

Prompt: Identify measured normalised viability obtained with Hs578T for COc1cc(F)c(F)c(Nc2ccc(I)cc2F)c1NS(=O)(=O)C1(C[C@H](O)CO)CC1 [RDEA119] .
Completion: 103
